Where do these numbers come from? They come from ChEMBL document CHEMBL1150988.

assay: Ratio for Kcat to Km against Streptomyces R61 DD-peptidase; parameters: unit not given here
METRIC: Ratio

{"SMILES_DATA": "CC(=O)NCCCC[C@H](NC(C)=O)C(=O)N[C@@H](C)C(=O)O[C@H](C)C(=O)O", "Ratio": 1300}
{"SMILES_DATA": "CC(=O)NCCCC[C@H](NC(C)=O)C(=O)NCC(=O)N[C@H](C)C(=O)O", "Ratio": 1.3}
{"SMILES_DATA": "CC(=O)NCCCC[C@H](NC(C)=O)C(=O)NCC(=O)S[C@H](C)C(=O)O", "Ratio": 5850}

a: CC(=O)NCCCC[C@H](NC(C)=O)C(=O)NCC(=O)O[C@H](C)C(=O)O
b: C[C@@H](OC(=O)CNC(=O)Cc1ccccc1)C(=O)O
Field: lower recorded Ratio (choose a or b ) Field: selected label. Fill in the label of the entry you choose.
b
(b: 366, a: 1060)

1: C[C@H](NC(=O)Cc1ccccc1)C(=O)N[C@H](C)C(=O)O
2: C[C@@H](SC(=O)CNC(=O)Cc1ccccc1)C(=O)O
3: C[C@H](NC(=O)Cc1ccccc1)C(=O)O[C@H](C)C(=O)O
Exam item: list the entries in increasing order of Ratio. Answer format: the labels, in the requested order.
1, 3, 2
